- System: NCI-H522 lung
- METHOD_DESCRIPTION: NCI tumour cell line growth inhibition, 48 h; in the data active = GI50 below about 0.43 µM; inactive = the rest
One label from this list, please: true for active, false for inactive

Study these solved cases before continuing.
[[record]]
compound = "C#COc1cccc(Nc2ncnc3ncc(NC(=O)CCl)cc23)c1"
assigned_label = "false"

[[record]]
compound = "COC(=O)Nc1nc2cc3c(cc2s1)OCCO3"
assigned_label = "false"

[[record]]
compound = "CC[C@@H](C(=O)[C@@H](C)[C@@H](O)[C@H](C)[C@@H]1O[C@@H]([C@@H](CC)C(=O)O)CC[C@@H]1C)[C@H]1OC2(C=C[C@@H](O)[C@]3(CC[C@@](C)([C@H]4CC[C@](O)(CC)[C@H](C)O4)O3)O2)[C@H](C)C[C@@H]1C (stereo partly specified)"
assigned_label = "true"

[[record]]
compound = "Nc1ccccc1NC(=O)c1ccc(CN2CCC/C(=C\\c3cccc(Cl)c3)C2=O)cc1"
assigned_label = "true"


Outcome logged for "COc1ccc(-c2nn(-c3cccc(NC(=O)Nc4cc(C(F)(F)F)cc(C(F)(F)F)c4)c3)cc2-c2ccncc2)cc1Cl" in this assay:
false

Outcome logged for C=C1CCC2C3(C)COC(c4ccc(SC)cc4)OC3CCC2(C)C1C/C=C1/C(=O)OCC1O (stereo unspecified) in this assay:
false

Outcome logged for "CN(C)CCN=Cc1c2ccccc2c(=O)n2c1oc1ccccc12" in this assay:
false

* * *

Below, each of the compounds is paired with its reported TGI value.
- System: SW-620 colon
- METHOD_DESCRIPTION: NCI tumour cell line growth inhibition, 48 h

Would you please look over these solved cases?
[[record]]
compound = "COc1ccc(/C=C/c2cc(N3CCOCC3)c3cc(F)c(F)cc3n2)cc1OC"
obs_value = "11.6 µM"

[[record]]
compound = "COC(=O)NN=C(c1ccc(Cl)cc1)c1ccc(Cl)cc1"
obs_value = "> 100 µM"

[[record]]
compound = "Nc1nc(NNc2ccc(Cl)c(Cl)c2)cc(=O)[nH]1"
obs_value = "61.1 µM"


Field request: TGI | item: "c1ccc(-c2nn(-c3ccccc3)[n+](-c3cccc4ccccc34)n2)cc1"
15.9 µM

Field request: TGI | item: CC(C)c1cccc(C(C)C)c1NC(=O)C(=O)C(C(=O)c1ccc2ccccc2c1)C1OC(=O)c2ccccc21 (stereo unspecified)
> 100 µM

* * *

- Test system: SK-MEL-28 melanoma
- METHOD_DESCRIPTION: NCI tumour cell line growth inhibition, 48 h
Below, each of the molecules is paired with its reported TGI value.

Would you please look over these solved cases?
[[record]]
molecule = "COc1cc2c(cc1OC)C1(c3ccccc3)CN(C2)Cc2cc(OC)c(OC)cc21"
measurement_target = "SK-MEL-28 melanoma"
obs_value = "> 100 µM"

[[record]]
molecule = "O=[N+]([O-])c1cccc2nc3ccccc3c(NCCCN3CCOCC3)c12"
measurement_target = "SK-MEL-28 melanoma"
obs_value = "0.138 µM"

[[record]]
molecule = "O=C(NNC(=O)c1ccncc1)c1ccncc1"
measurement_target = "SK-MEL-28 melanoma"
obs_value = "> 100 µM"

[[record]]
molecule = "CC[C@@H](C(=O)[C@@H](C)[C@@H](O)[C@H](C)CCc1ccc(C)c(O)c1C(=O)O)[C@H]1O[C@](CC)([C@H]2CC[C@](O)(CC)[C@H](C)O2)C[C@@H]1C"
measurement_target = "SK-MEL-28 melanoma"
obs_value = "2.86 µM"

[[record]]
molecule = "CC1(C)CCc2cc3c(-c4ccccc4)cc(=O)oc3cc2O1"
measurement_target = "SK-MEL-28 melanoma"
obs_value = "> 100 µM"

[[record]]
molecule = "O=P1(Oc2ccc(Cl)cc2)OCCS1 (configuration not stated)"
measurement_target = "SK-MEL-28 melanoma"
obs_value = "> 100 µM"

[[record]]
molecule = "COC(=O)C1CCC(Nc2cccc(C(F)(F)F)c2)=N1 (configuration not stated)"
measurement_target = "SK-MEL-28 melanoma"
obs_value = "> 100 µM"

[[record]]
molecule = "CO/N=C1/c2sccc2[C@H](NC(=O)C(F)(F)F)[C@@H]1O"
measurement_target = "SK-MEL-28 melanoma"
obs_value = "> 100 µM"


Field request: TGI | item: CC12CC[C@H](O)C(C)(C)[C@H]1CC[C@](C)(O)C2COc1ccc2ccc(=O)oc2c1 (some centres not stated)
> 100 µM

Field request: TGI | item: Clc1ccc(OC2CCO2)cc1Cl (configuration not stated)
> 100 µM

Field request: TGI | item: CC(C)(C)OC(=O)NC(Cc1cnc[nH]1)C(=O)N1CCCC1C(N)=O (configuration not stated)
> 100 µM

Field request: TGI | item: "Cc1cc(C(=O)N2CCN(Cc3ccccc3)CC2)c(C)o1"
> 100 µM

Field request: TGI | item: "Cn1cc(C[C@@H](N)C(=O)O)c2ccccc21"
> 100 µM

Field request: TGI | item: COc1ccc(N2C(=O)/C(=C\c3cccc(Oc4ccccc4)c3)S(=O)(=O)C2c2ccccc2)cc1 (configuration not stated)
> 100 µM

Field request: TGI | item: CC1(C)C[C@H]2C=C(C=O)[C@]34C[C@]3(C(=O)OC4O)[C@H]2C1 (some centres not stated)
9.4 µM

Field request: TGI | item: CCN1CC2=C(NC(=S)NC2c2cc(OC)c(OC)c(OC)c2)/C(=C/c2cc(OC)c(OC)c(OC)c2)C1 (configuration not stated)
47.2 µM

Field request: TGI | item: CC1C/C(=N\N(C)C)C(C#N)(C#N)C1(C#N)C#N (configuration not stated)
> 78.6 µM

Field request: TGI | item: O=C1C2CCC(C2)C12CC1(c3ccccc3)C(=O)c3ccccc3N1O2 (configuration not stated)
> 100 µM

Field request: TGI | item: "c1ccc2sc(C3(N4CCCCC4)CCCCCC3)cc2c1"
21.6 µM

Field request: TGI | item: "Cc1ccc(S(=O)(=O)Oc2cc(S(=O)(=O)O)cc3cc(S(=O)(=O)O)cc(N)c23)cc1"
> 100 µM

Field request: TGI | item: "C=C(C)[C@@]1(O)CCC[C@H]1NC(=O)OC(C)(C)C"
> 100 µM

Field request: TGI | item: NC(=O)C(NC=O)c1ccccc1 (configuration not stated)
> 100 µM
